IC50: recorded values
Target: Human recombinant PTP-1B (Homo sapiens, UniProt P18031)
Construct: Human recombinant PTP-1B, containing amino acids 1-321, fused to GST enzyme; GST (glutathione S-transferase)
Sequence (P18031 1-321): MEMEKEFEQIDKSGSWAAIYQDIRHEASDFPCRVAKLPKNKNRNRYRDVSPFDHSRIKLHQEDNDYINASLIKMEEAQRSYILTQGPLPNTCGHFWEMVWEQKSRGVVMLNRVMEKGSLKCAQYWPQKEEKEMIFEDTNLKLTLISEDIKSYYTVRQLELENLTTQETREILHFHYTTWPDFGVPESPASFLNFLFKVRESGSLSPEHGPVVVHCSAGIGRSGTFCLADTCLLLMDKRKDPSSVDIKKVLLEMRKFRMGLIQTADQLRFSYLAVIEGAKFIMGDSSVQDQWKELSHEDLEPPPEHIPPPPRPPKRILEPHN
Test: Assay for PTP-1B Activity (pNPP substrate)
Assay type: biochemical
Conditions: human recombinant PTP-1B (1-321) GST fusion, 2 mM pNPP, pH 7.4, 30° C., 20 min; read-out: Activity Code (IC50 range)

>  <CPD_SMILES>
O=C1N(Cc2ccccc2)CCN1Cc1ccc(C(F)(F)P(=O)(O)O)c(Br)c1

>  <IC50>
250 to 2500 nM

$$$$
>  <CPD_SMILES>
COC(=O)c1ccc(-c2cn(C)c(=O)n2Cc2ccc(C(F)(F)P(=O)(O)O)c(Br)c2)cc1

>  <IC50>
250 to 2500 nM

$$$$
>  <CPD_SMILES>
COC(=O)c1ccc(-c2cn(Cc3ccc(F)cc3)c(=O)n2Cc2ccc(C(F)(F)P(=O)(O)O)c(Br)c2)cc1

>  <IC50>
100 to 249 nM

$$$$

input: What value of measured IC50 is listed for O=c1n(Cc2ccccc2)cc(-c2cccs2)n1Cc1ccc(C(F)(F)P(=O)(O)O)c(Br)c1 ?
output: 250 to 2500 nM

input: What value of measured IC50 is listed for N#Cc1ccc(-c2c[nH]c(=O)n2Cc2ccc(C(F)(F)P(=O)(O)O)c(Br)c2)cc1 ?
output: 100 to 249 nM

input: What value of measured IC50 is listed for CCCn1cc(-c2ccc(C(=O)OC)cc2)n(Cc2ccc(C(F)(F)P(=O)(O)O)c(Br)c2)c1=O ?
output: 100 to 249 nM
